ASSAYED SYSTEM: HLA-DRB1*04:01 (Homo sapiens, UniProt P01903+P01911, A100K/A169T/F76Y/I96L/K127E/L162R/M171V/N62H/P40V/Q125Y/R42H/S133A/S149N/S66Y/V115G/V209L/W38E)
PROTOCOL NOTES: Peptide competition binding assay to HLA-DRB1*04:01
Where a SMILES comes first, the peptide text is derived from it. [ ]: non-standard residue; d: D form. Cit = NC(=O)NCCC[C@H](N)C(=O)O
REPORTED ENDPOINT: EC50 (µM)
Numeric only. Scale: µM

Please give measured EC50 of the following entry: CC[C@H](C)[C@H](NC(=O)[C@H](CCCNC(N)=O)NC(=O)[C@H](Cc1ccccc1)NC(=O)[C@H](CO)NC(=O)[C@H](CCC(=O)O)NC(=O)[C@@H](N)C(C)C)C(=O)N[C@H](C(=O)N[C@@H](Cc1ccc(O)cc1)C(=O)N[C@H](C(=O)N1CCC[C@H]1C(=O)N[C@H](C(=O)N[C@H](C(=O)NCC(=O)NCC(=O)N[C@H](C(=O)O)[C@@H](C)O)[C@@H](C)O)[C@@H](C)CC)C(C)C)[C@@H](C)O [TNC50] (H-VESF[Cit]ITYVPITGGT-OH)
1
